Data origin, for the record: patent US20110118262A1

- System: NHE-1 (Homo sapiens, UniProt P19634)
- Construct: endogenous in cells
- Sequence (P19634 whole entry): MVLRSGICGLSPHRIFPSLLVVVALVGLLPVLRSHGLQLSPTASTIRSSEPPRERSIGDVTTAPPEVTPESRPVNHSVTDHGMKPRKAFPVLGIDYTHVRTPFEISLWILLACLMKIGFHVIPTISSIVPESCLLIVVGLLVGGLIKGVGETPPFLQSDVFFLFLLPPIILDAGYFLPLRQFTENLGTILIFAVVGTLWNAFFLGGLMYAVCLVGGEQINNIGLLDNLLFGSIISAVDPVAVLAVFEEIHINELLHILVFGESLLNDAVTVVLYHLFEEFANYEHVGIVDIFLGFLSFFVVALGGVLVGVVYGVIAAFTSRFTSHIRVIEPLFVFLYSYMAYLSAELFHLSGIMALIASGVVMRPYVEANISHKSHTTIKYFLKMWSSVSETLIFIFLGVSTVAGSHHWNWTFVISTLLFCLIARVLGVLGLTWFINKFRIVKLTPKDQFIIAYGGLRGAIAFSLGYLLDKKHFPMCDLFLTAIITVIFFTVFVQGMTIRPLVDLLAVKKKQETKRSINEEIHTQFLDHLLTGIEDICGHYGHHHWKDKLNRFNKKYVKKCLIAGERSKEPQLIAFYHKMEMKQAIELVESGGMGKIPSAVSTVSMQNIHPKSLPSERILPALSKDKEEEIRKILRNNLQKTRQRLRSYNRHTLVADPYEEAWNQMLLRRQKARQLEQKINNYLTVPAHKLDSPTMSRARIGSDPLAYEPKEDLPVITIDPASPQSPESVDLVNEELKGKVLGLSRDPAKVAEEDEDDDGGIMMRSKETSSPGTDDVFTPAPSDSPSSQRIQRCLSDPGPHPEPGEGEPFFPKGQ
- Experimental details: Evaluation of NHE-1 Inhibition (pHi) in HT-29 cells
- Assay context: BCECF dye, 50% inhibition of the intracellular pH recovery, read-out: NHE1 HT29 pHi IC50
Property: IC50 (nM)
# output: bare number, implied unit nM

Measured IC50, `CS(=O)(=O)c1cc(C(=O)NC(=N)N)ccc1C1CCN(C(=O)c2ccc(F)cc2)CC1` : 18

Measured IC50, `CN1CCC(C(=O)N2CCC(c3ccc(C(=O)NC(=N)N)cc3C(F)(F)F)CC2)CC1` : 0.3

Measured IC50, `COc1ccc(CC(=O)N2CCC(c3ccc(C(=O)NC(=N)N)cc3C(F)(F)F)CC2)cc1` : 140

Measured IC50, `N=C(N)NC(=O)c1ccc(C2CCN(C(=O)c3cn4ccccc4n3)CC2)c(C(F)(F)F)c1` : 17

Measured IC50, `N=C(N)NC(=O)c1ccc(C2CCN(C(=O)c3ccc(-n4ccnc4)cc3)CC2)c(C(F)(F)F)c1` : 71

Measured IC50, `COc1ccc(C(=O)N2CCC(c3ccc(C(=O)NC(=N)N)cc3C(F)(F)F)CC2)cc1` : 195

Measured IC50, `N=C(N)NC(=O)c1ccc(C2=CCN(C(=O)c3ccc(-n4ccnc4)cc3)CC2)c(C(F)(F)F)c1` : 33

Measured IC50, `COc1cc(C(=O)N2CCC(c3ccc(C(=O)NC(=N)N)cc3C(F)(F)F)CC2)ccc1-c1cccnc1` : 66

Measured IC50, `N=C(N)NC(=O)c1ccc(C2CCN(C(=O)c3ccc(-c4cnco4)cc3)CC2)c(C(F)(F)F)c1` : 109

Measured IC50, `COC(=O)c1ccc(C(=O)N2CCC(c3ccc(C(=O)NC(=N)N)cc3C(F)(F)F)CC2)cc1` : 183

Measured IC50, C[S+]([O-])CC[C@H](N)C(=O)N1CCC(c2ccc(C(=O)NC(=N)N)cc2C(F)(F)F)CC1 (stereo partly drawn) : 12

Measured IC50, `N=C(N)NC(=O)c1ccc(C2CCN(C(=O)c3ccc(-n4cccn4)cc3)CC2)c(C(F)(F)F)c1` : 88

Measured IC50, `Cn1cncc1C(=O)N1CCC(c2ccc(C(=O)NC(=N)N)cc2C(F)(F)F)CC1` : 15

Measured IC50, `N=C(N)NC(=O)c1ccc(C2CCN(C(=O)c3cncc(-c4ccccc4)c3)CC2)c(C(F)(F)F)c1` : 204

Measured IC50, `N=C(N)NC(=O)c1ccc(C2CCN(C(=O)C3(N)CCCCC3)CC2)c(C(F)(F)F)c1` : 33

Measured IC50, `N=C(N)NC(=O)c1ccc(C2CCN(C(=O)c3cccc(-c4ccccn4)c3)CC2)c(C(F)(F)F)c1` : 147

Measured IC50, `Cc1cc(C2CCN(C(=O)c3ccncc3)CC2)c(C(F)(F)F)cc1C(=O)NC(=N)N` : 7

Measured IC50, `N=C(N)NC(=O)c1ccc(C2CCN(C(=O)c3cccc4ncccc34)CC2)c(C(F)(F)F)c1` : 46
